Test system: Vero E6 infected with SARS-CoV-2
Assay: SARS-CoV-2 infection rate relative to infected DMSO; higher = more infection, active = 60 or less
Conditions: 24 h
The entries below come with measured SARS-CoV-2 infection rate values attached.
Unit % implied. Number only.

Use the examples below as a reference point.
MOLECULE	SARS-CoV-2 infection rate (%)
Nc1c2ccccc2nc2ccccc12 [9-aminoacridine] (0.833333 µM)	106
O=C(O)CCCCC(CCSCc1ccccc1)SCc1ccccc1 (configuration not stated) (10 µM)	104
Cc1ccc(/C(=C\CN2CCCC2)c2cccc(/C=C/C(=O)O)n2)cc1 [acrivastine] (10 µM)	104
CC[C@@]1(O)C(=O)OCc2c1cc1n(c2=O)Cc2cc3ccccc3nc2-1 [camptothecin] (0.833333 µM)	114
C[C@@H]1C/C=C/C=C/C=C/C=C/[C@H](O[C@@H]2O[C@H](C)[C@@H](O)[C@H](N)[C@@H]2O)C[C@@H]2O[C@](O)(C[C@@H](O)C[C@H]3O[C@@H]3/C=C/C(=O)O1)C[C@H](O)[C@H]2C(=O)O [natamycin] (10 µM)	108

According to the records, this molecule CC1=C(/C=C/C(C)=C/C=C/C(C)=C/C=O)C(C)(C)CCC1 [retinaldehyde] (10 µM) displays SARS-CoV-2 infection rate of 114

According to the records, this molecule CC(C)[C@@H]1C(=O)N(S(C)(=O)=O)[C@@H]2CCN(C(=O)/C=C/CN3CCCCC3)[C@H]21 (10 µM) displays SARS-CoV-2 infection rate of 106
